Measurement record for UniProt P0C6X1; quantity recorded: EC50.
Sequence (P0C6X1 2966-3267 limits assumed): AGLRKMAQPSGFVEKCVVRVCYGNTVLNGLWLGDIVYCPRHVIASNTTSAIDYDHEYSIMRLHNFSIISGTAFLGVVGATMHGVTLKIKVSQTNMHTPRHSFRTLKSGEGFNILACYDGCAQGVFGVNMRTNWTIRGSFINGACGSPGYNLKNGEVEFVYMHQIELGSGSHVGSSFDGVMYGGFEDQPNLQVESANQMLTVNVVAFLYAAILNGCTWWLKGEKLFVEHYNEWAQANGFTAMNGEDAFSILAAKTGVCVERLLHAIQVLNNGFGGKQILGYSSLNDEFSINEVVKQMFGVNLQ
Endpoint name: EC50 (nM)

{"columns": ["Compound", "Result units", "Number"],
 "data": [
  ["CO[C@H]1CN(c2c(C(=O)N3CCOCC3)cc(C#N)cc2C(F)(F)F)C[C@@H]1NC(=O)c1cc(=O)[nH]c2c(F)cccc12 [Compound 32]", "nM", 1.78],
  ["O=C(N[C@@H]1CCN(c2c(C(=O)N3CCCC3)cc(Br)cc2C(F)(F)F)C1)c1cc(=O)[nH]c2c(F)cccc12 [Compound 68]", "nM", 10.4],
  ["O=C(N[C@@H]1CCN(c2c(C(=O)N3CCOCC3)cc(Cl)cc2C(F)(F)F)C1)c1c(F)c(=O)[nH]c2c(F)cccc12 [Compound 55]", "nM", 1.74]
]}
